Test system: MCF-7 cells
Experiment: α-tubulin immunostaining, spindle formation
Assay type: cell-based, human
Details: MCF-7, 48 h, n = 300 dividing cells; concentrations as E14
parameter: Monoastral Spindle (%) 48 h

{"compound": "CCOC(=O)C1=C(C)NC(=S)NC1c1ccccc1O (stereo not shown) [Compound 4p]", "assay result": "0%"}
{"compound": "CCOC(=O)C1=C(C)NC(=S)NC1c1cccc(O)c1 (stereo not shown) [Monastrol, reference compound]", "assay result": "92%"}
{"compound": "CC(=O)C1=C(C)NC(=O)NC1c1ccccc1[N+](=O)[O-] (stereo not shown) [Compound 4x]", "assay result": "87.99%"}
{"compound": "CC1(C)CC(=O)C2=C(C1)NC(=S)NC2c1cccc(O)c1 (stereo not shown) [Compound 4bt, Dimethylenastron]", "assay result": "80%"}
